assayed-system: T1, BSA (blocking agent) (UniProt P02769 25-607)
T1 construct: Specificity control of the ELISA
T1 sequence (P02769 25-607 limits assumed): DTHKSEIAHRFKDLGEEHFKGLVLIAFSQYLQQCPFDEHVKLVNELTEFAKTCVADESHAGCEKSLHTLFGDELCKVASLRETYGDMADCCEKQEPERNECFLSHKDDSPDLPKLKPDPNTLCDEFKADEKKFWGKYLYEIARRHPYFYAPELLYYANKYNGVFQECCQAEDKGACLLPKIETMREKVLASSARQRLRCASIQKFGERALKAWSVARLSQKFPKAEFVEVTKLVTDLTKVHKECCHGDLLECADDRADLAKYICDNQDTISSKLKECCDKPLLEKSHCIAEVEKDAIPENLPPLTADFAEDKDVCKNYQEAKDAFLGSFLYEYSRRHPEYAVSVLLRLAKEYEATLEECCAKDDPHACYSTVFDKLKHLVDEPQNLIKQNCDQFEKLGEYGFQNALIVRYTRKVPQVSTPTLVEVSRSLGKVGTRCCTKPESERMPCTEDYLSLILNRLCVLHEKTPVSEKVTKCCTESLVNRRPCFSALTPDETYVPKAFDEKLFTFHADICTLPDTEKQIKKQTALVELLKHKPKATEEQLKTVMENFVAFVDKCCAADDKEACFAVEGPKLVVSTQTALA
test-method-notes: ELISA on uncoated plates blocked with PBS 3% BSA, periplasmic preparation
measurement-name: binding result

# binder, reported-value
rows = [
    ("human anti-human CD3 scFv 3-550 (FLAG-tagged) (scFv, VH-(G4S1)3-VL scFv from huLIB-STE, tested as crude periplasmic preparation) scFv: ELQLVESGPGLVKPSQTLSLTCAISGDSVSSNSAAWNWIRQSPSRGLEWLGRTYYRSKWYNDYAVSVKSRITINPDTSKNQFSLQLNSVTPEDTAVYYCARDRRRIAARQYYGMDVWGQGTTVTVSSGGGGSGGGGSGGGGSELVLTQSPGTLSLSPGERATLSCRASQSVSSNYLAWYQQKPGQAPRLLIYGASSRATGIPDRFSGSGSGTDFTLTISSLQPEDVATYYCQKYNSAPLTFGGGTKVEIKTGDYKDDDDK", "no binding"),
    ("human anti-human CD3 scFv 3-190 (FLAG-tagged) (scFv, VH-(G4S1)3-VL scFv from huLIB-STE, tested as crude periplasmic preparation) scFv: ELQLVEWGAGLLKPSETLSLTCAVYGGSFSGYYWSWIRQPPGKGLEWIGEINHSGSTNYNPSLKSRVTISVDTSKNQFSLKLSSVTAADTAVYYCARGRGRFLGWLLGGSNWFDPWGQGTLVTVSSGGGGSGGGGSGGGGSELVMTQSPSSLSASVGDRVTITCRASQGISNYLNWYQQKPGKAPKLLIYDASNLETGVPSRFSGSGSGTDFTLTISSLQPEDFATYYCQQSYSTPYTFGQGTKVDIKTGDYKDDDDK", "no binding"),
    ("human anti-human CD3 scFv 4-48 (FLAG-tagged) (scFv, VH-(G4S1)3-VL scFv from huLIB-STE, tested as crude periplasmic preparation; also called clone 4-48) scFv: ELQLVESGPVLVKPTDTLTLTCTVSGFSLNNPRMGVSWIRQPPGKTLEWLAHIFPSDAKAHSASLKSRLTISKDTSKSQVVPTMTNMDPVDTATYYCARILGEYYPPAWFDPWGQGTLVTVSSGGGGSGGGGSGGGGSELVMTQSPDSLAVSLGERATINCKSSQSVLYSSNNKNYLAWYQQKPGQPPKLLIYWASTRESGVPDRFSGSGSGTDFTLTISSLQAEDVAVYYCQQYLKIPYTFGQGTKVEIKTGDYKDDDDK", "no binding"),
    ("human anti-human CD3 scFv 3-106 (FLAG-tagged) (scFv, VH-(G4S1)3-VL scFv from huLIB-ST, tested as crude periplasmic preparation) scFv: ELQLVESGGGVVQPGRSLRLSCAASGFTFSSYGMHWVRQAPGKGLEWVAVISYDGSNKYYADSVKGRFTISRDNSKNTLYLQMNSLRSEDTAVYYCARLSPYCTNGVCWDAFDIWGQGTMVTVSSGGGGSGGGGSGGGGSELQMTQSPSSLSASVGDRVSITCRASQTISNYLNWYQLKPGKAPKLLIYAASTLQSEVPTRFSGSGSGTDFTLTISGLHPEDFATYYCQQFNSYPRTFGQGTKVEIKTGDYKDDDDK", "no binding"),
]

All figures here come from patent US8784821.
